B1: GA-binding protein alpha chain, residues 172 to 250; numbered along this chain, Q06546 (parent)
chain: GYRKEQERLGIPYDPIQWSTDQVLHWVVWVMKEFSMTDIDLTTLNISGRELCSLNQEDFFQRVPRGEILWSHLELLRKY

# Variants of: B1
# PROTOCOL SUMMARY: abundance fitness (aPCA) (normalised: wild type 0, dead -1); higher = more abundant; growth selection in yeast, the domain comes from the species named
# EXPERIMENTAL CONTEXT: Homo sapiens
Record condition met whenever abundance fitness is at -0.1 or higher; record condition not met when lower.

Task item: Could you please find out whether "D58A" has abundance fitness that meets -0.1 or exceeds it?
Reply: condition met

Task item: Please indicate if the recorded abundance fitness for "T43P" meets or exceeds -0.1.
Reply: condition met

Task item: Hello, I need to know if "L75G" has measured abundance fitness not below -0.1. Thanks!
Reply: condition not met

Task item: Confirm if abundance fitness reported for the variant "F34N" is -0.1 or above.
Reply: condition met

Task item: Has "D40S" a recorded abundance fitness greater than or equal to -0.1?
Reply: condition not met

Task item: Check this variant for abundance fitness at or above -0.1: "W26H"
Reply: condition not met

Task item: Tell me whether abundance fitness is at least -0.1 here: "E33G"
Reply: condition not met

Task item: Reported abundance fitness reaches at least -0.1 for "M31V" ?
Reply: condition met

Task item: Is reported abundance fitness greater than or equal to -0.1 here: "H25I"
Reply: condition not met

Task item: Given the entry "V27D" , answer whether its abundance fitness meets or surpasses -0.1.
Reply: condition not met
